assay: ADME solubility determination at pH 2.0 and pH 7.4; type: physicochemical; settings: aqueous buffer, thermodynamic from solid; PBS pH 2.0, shaken at 25° C. for 24 hours, LC-MS/MS; read-out: Solubility at pH 2.0
Please provide measured solubility at 24 h for the entries that follow.

Fill in: solubility at 24 h of COc1ncnc(C2CC2)c1-c1ncc2cnn(Cc3ccc(-c4nc(C(F)(F)F)nn4C)c(F)c3)c2n1 [Example 57] is ___
> 10 µM

Please give the result for CCn1cc(C(F)(F)F)nc1-c1ccc(Cn2nc(SCc3ccc(OC)cc3)c3cnc(-c4c(OC)ncnc4C4CC4)nc32)cc1 [Example 192] too.
< 10 µM

Please give the result for COc1ncnc(C2CC2)c1-c1ncc2ncn(Cc3ccc(-c4nc(C(F)(F)F)cn4C(C)C)cc3)c2n1 [Example 204] too.
> 10 µM

Please give the result for CCn1cc(C(F)(F)F)nc1-c1ccc(Cn2ncc3cnc(-c4c(OC)ncnc4OC4CC4)nc32)cc1 [Example 114] too.
> 10 µM

----------
experiment: Liver microsomal stability, human liver microsomes; format: in vitro ADME; conditions: 1 μM compound, NADPH, read-out: t1/2 (min) in HLM
Please provide measured half-life at 1 μM for the entries that follow.

Fill in: half-life at 1 μM of COc1ncnc(C2CC2)c1-c1ncc2cnn(Cc3ccc(-n4nc(C(F)F)cc4C)cc3)c2n1 is ___
> 25 min

Please give the result for COc1ncnc(C(C)C)c1-c1ncc2cnn(Cc3ccc(-c4nc(C(F)(F)F)cn4C(C)C)cc3)c2n1 too.
> 25 min

Please give the result for COc1ncnc(OC)c1-c1ncc2cnn(Cc3ccc(-c4nc(C(F)(F)F)cn4C(C)C)cc3)c2n1 too.
> 25 min

Please give the result for COc1ncnc(C2CC2)c1-c1ncc2cnn(Cc3ccc(-n4nc(C(F)(F)F)cc4OCCO)cc3)c2n1 too.
> 25 min

Please give the result for CCn1cc(C(F)(F)F)nc1-c1ccc(Cn2ncc3c(C)nc(-c4c(OC)ncnc4C4CC4)nc32)cc1 too.
> 25 min

Please give the result for COc1ncnc(C2CC2)c1-c1ncc2cnn(Cc3ccc(-n4nc(C(F)(F)F)cc4C)cc3)c2n1 too.
> 25 min

Please give the result for COc1ncnc(C2CC2)c1-c1ncc2cnn(Cc3ccc(-c4nc(C(F)(F)F)cn4C4CN(C)C4)cc3)c2n1 too.
< 25 min

Please give the result for COc1ncnc(C2(C)CC2)c1-c1ncc2cnn(Cc3ccc(-c4nc(C(F)(F)F)cn4C)cc3)c2n1 too.
< 25 min

Please give the result for CCn1cc(C(F)(F)F)nc1-c1ccc(Cn2nc(C#N)c3cnc(-c4c(OC)ncnc4C4CC4)nc32)cc1 too.
> 25 min

Please give the result for CSc1cccc(C)c1-c1ncc2cnn(Cc3ccc(-c4nc(C(F)(F)F)cn4C)cc3)c2n1 too.
< 25 min

Please give the result for CCn1cc(C(F)(F)F)nc1-c1ccc(Cn2ncc3cnc(-c4c(OC)ncnc4C4CN(C)C4)nc32)cc1 too.
< 25 min

Please give the result for COCc1nc2cnc(-c3c(OC)ncnc3C3CC3)nc2n1Cc1ccc(-c2nc(C(F)(F)F)cn2C(C)C)cc1 too.
< 25 min

Please give the result for CCc1nc2cnc(-c3c(OC)ncnc3C3CC3)nc2n1Cc1ccc(-c2nc(C(F)(F)F)cn2C(C)C)cc1 too.
> 25 min

Please give the result for Cn1cc(C(F)(F)F)nc1-c1ccc(Cn2ncc3cnc(-c4ccccc4S(C)(=O)=O)nc32)cc1 too.
> 25 min

Please give the result for COc1ncnc(C2CC2)c1-c1ncc2cnn(Cc3ccc(-c4nc(C(F)(F)F)c(Br)n4C(C)C)cc3)c2n1 too.
> 25 min

----------
experiment: ADME solubility determination at pH 2.0 and pH 7.4; format: physicochemical; conditions: aqueous buffer, thermodynamic from solid; PBS pH 2.0, shaken at 25° C. for 24 hours, LC-MS/MS; read-out: Solubility at pH 2.0
Quantity measured: solubility at 24 h

Fill in: solubility at 24 h of CCn1cc(C(F)(F)F)nc1-c1ccc([C@@H](C)n2ncc3cnc(-c4c(OC)ncnc4C4CC4)nc32)cc1 (single isomer, unassigned) [Example 95] is ___
> 10 µM

Please give the result for COc1ncnc(C2CC2)c1-c1ncc2nc(C3CCC3)n(Cc3ccc(-n4nc(C(F)(F)F)cc4C)cc3)c2n1 [Example 214] too.
< 10 µM

Please give the result for COc1ncnc(C(C)C)c1-c1ncc2cnn(Cc3ccc(-n4nc(C(F)(F)F)cc4C)cc3)c2n1 [Example 115] too.
< 10 µM

Please give the result for COc1ncnc(C2CC2)c1-c1ncc2cnn(Cc3ccc(-c4nc(C(F)(F)F)nn4C(C)C)cc3)c2n1 [Example 58] too.
< 10 µM

Please give the result for COc1ncnc(C2CC2)c1-c1ncc2cnn(Cc3ccc(-n4nc(C(F)(F)F)cc4OCCO)cc3)c2n1 [Example 78] too.
< 10 µM

Please give the result for CCn1cc(C(F)(F)F)nc1-c1ccc(Cn2ncc3cnc(-c4c(C5CC5)cnn4CC)nc32)cc1 [Example 68] too.
< 10 µM

Please give the result for COc1ncnc(C2CC2)c1-c1ncc2cnn(Cc3ccc(-c4nc(C(F)(F)F)cn4C4CCOC4)cc3)c2n1 (stereo not drawn) [Example 146] too.
> 10 µM

Please give the result for COc1cccc(OC)c1-c1ncc2cnn(Cc3ccc(-c4nc(C(F)(F)F)cn4C)cc3)c2n1 [Example 4] too.
> 10 µM

Please give the result for CCn1cc(C(F)(F)F)nc1-c1ccc(Cn2ncc3cnc(-c4c(OC)cnn4C4CC4)nc32)cc1 [Example 82] too.
< 10 µM

Please give the result for COc1ncnc(C2CC2)c1-c1ncc2cnn(Cc3ccc(-n4nc(C(F)(F)F)cc4C)cc3)c2n1 [Example 27] too.
< 10 µM

Please give the result for COc1ncnc(OC)c1-c1ncc2cnn(Cc3ccc(-c4nc(C(F)(F)F)cn4C)cc3)c2n1 [Example 86] too.
> 10 µM

Please give the result for COc1ncnc(C2CC2)c1-c1ncc2cnn(Cc3ccc(-c4nc(C#N)cn4C)cc3)c2n1 [Example 69] too.
> 10 µM

Please give the result for CCS(=O)(=O)c1ccccc1-c1ncc2cnn(Cc3ccc(-c4nc(C(F)(F)F)cn4C)cc3)c2n1 [Example 7] too.
< 10 µM

Please give the result for COc1ncnc(C2CC2)c1-c1ncc2nc(C)n(Cc3ccc(-c4nc(C(F)(F)F)cn4C)cc3)c2n1 [Example 206] too.
> 10 µM

Please give the result for COc1nc(C)c(-c2ncc3cnn(Cc4ccc(-c5nc(C(F)(F)F)cn5C)cc4)c3n2)c(OC)n1 [Example 111] too.
> 10 µM

----------
Please provide measured solubility at 24 h for the entries that follow.
experiment: ADME solubility determination at pH 2.0 and pH 7.4; assay type: physicochemical; conditions: aqueous buffer, thermodynamic from solid; PBS pH 2.0, shaken at 25° C. for 24 hours, LC-MS/MS; read-out: Solubility at pH 2.0

Fill in: solubility at 24 h of CCn1cc(C(F)(F)F)nc1-c1ccc([C@@H](C)n2ncc3cnc(-c4c(OC)ncnc4OC)nc32)cc1 is ___
> 10 µM

Please give the result for COc1ncnc(C)c1-c1ncc2cnn(Cc3ccc(-c4nc(C(F)(F)F)cn4C)cc3)c2n1 too.
> 10 µM

Please give the result for COc1ncnc(C2CC2)c1-c1ncc2cnn([C@H](C)c3ccc(-c4nc(C(F)(F)F)cn4C(C)C)cc3)c2n1 too.
> 10 µM

Please give the result for CCn1cc(C(F)(F)F)nc1-c1ccc(Cn2nc(Br)c3cnc(-c4c(OC)ncnc4C4CC4)nc32)cc1 too.
< 10 µM

Please give the result for COc1ncnc(C2CC2)c1-c1ncc2nnn(Cc3ccc(-c4nc(C(F)(F)F)cn4C)cc3)c2n1 too.
> 10 µM

Please give the result for COc1ccccc1-c1ncc2cnn(Cc3ccc(-c4nc(C(F)(F)F)cn4C)cc3)c2n1 too.
> 10 µM

Please give the result for COc1ncnc(C2CC2)c1-c1ncc2cnn(Cc3ccc(-c4nc(C(F)(F)F)cn4C(C)C)cc3)c2n1 too.
< 10 µM

Please give the result for COc1ncnc(C2CC2)c1-c1ncc2cnn(Cc3ccc(-c4nc(C(F)(F)F)c5n4CCNC5)cc3)c2n1 too.
> 10 µM

Please give the result for COc1ncnc(C2CC2)c1-c1ncc2cnn(Cc3ccc(-n4nc(C#N)cc4OC)cc3)c2n1 too.
< 10 µM

Please give the result for COc1ncnc(C2CC2)c1-c1ncc2cnn([C@@H](C)c3ccc(-c4nc(C(F)(F)F)cn4C)cc3)c2n1 (single isomer, unassigned) too.
> 10 µM

Please give the result for COc1ncnc(C2CC2)c1-c1ncc2cnn(Cc3ccc(-c4nc(C(F)(F)F)n(C)n4)cc3)c2n1 too.
< 10 µM

Please give the result for CC(C)c1c(F)cccc1-c1ncc2cnn(Cc3ccc(-c4nc(C(F)(F)F)cn4C)cc3)c2n1 too.
< 10 µM

Please give the result for COc1cc(Cn2ncc3cnc(-c4c(OC)ncnc4C4CC4)nc32)ccc1-c1cn(C)c(C(F)(F)F)n1 too.
< 10 µM

Please give the result for CC(C)c1ccccc1-c1ncc2cnn(C(C)c3ccc(-c4nc(C(F)(F)F)cn4C)cc3)c2n1 (stereo not drawn) too.
< 10 µM

Please give the result for CCn1cc(C(F)(F)F)nc1-c1ccc([C@H](C)n2ncc3cnc(-c4c(OC)ncnc4C(C)C)nc32)cc1 too.
> 10 µM
